- assay_system: T1, human C1s (human, UniProt P09871 16-688)
- T1 construct: also called hC1s; serum-derived human C1s (CompTech)
- T1 sequence: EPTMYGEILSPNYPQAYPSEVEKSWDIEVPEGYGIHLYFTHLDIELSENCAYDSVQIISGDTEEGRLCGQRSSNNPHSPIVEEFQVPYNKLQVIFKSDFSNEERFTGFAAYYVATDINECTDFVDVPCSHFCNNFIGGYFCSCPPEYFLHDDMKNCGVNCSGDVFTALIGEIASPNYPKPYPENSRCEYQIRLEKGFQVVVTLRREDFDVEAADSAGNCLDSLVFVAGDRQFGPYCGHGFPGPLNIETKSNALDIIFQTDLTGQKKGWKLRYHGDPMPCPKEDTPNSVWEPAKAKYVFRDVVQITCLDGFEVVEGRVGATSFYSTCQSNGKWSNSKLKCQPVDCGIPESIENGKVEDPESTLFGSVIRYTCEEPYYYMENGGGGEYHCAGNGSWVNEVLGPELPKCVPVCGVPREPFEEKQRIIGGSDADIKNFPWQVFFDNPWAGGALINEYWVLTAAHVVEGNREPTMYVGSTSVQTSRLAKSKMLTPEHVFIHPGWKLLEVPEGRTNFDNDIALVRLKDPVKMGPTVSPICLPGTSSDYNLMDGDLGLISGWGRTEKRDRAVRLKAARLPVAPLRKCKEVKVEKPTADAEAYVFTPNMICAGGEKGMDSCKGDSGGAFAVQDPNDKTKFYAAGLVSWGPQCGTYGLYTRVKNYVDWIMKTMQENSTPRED
- assay_text: SPR, Ab captured; pH 5.8, 1.2 mM Ca

{"binder": "C1_IPN92H0026-SG4GK/IPN93L0029-SK1 (antibody, human IgG4 S228P, kappa, name in Kabat numbering, V domains shown, also called IPN92H0026/IPN93L0029) VH: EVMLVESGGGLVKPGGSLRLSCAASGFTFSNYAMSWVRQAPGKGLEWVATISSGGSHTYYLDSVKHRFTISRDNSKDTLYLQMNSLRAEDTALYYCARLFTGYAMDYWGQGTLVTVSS VL: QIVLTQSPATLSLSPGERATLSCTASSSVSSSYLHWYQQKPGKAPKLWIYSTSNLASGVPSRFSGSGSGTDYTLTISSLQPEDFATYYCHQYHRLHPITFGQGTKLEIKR", "units_of_measure": "nM", "Kd": 10.2}
{"binder": "C1_IPN92H0033-SG4GK/IPN93L0028-SK1 (antibody, human IgG4 S228P, kappa, name in Kabat numbering, V domains shown, also called IPN92H0033/IPN93L0028) VH: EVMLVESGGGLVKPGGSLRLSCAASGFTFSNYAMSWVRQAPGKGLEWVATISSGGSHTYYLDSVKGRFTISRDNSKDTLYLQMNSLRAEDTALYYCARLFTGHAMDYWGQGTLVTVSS VL: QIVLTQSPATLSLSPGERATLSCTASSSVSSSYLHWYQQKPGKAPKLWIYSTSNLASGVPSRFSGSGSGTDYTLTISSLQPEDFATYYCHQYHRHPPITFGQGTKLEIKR", "units_of_measure": "nM", "Kd": 20.1}
{"binder": "C1_IPN92H0038-SG4GK/IPN93L0028-SK1 (antibody, human IgG4 S228P, kappa, name in Kabat numbering, V domains shown, also called IPN92H0038/IPN93L0028) VH: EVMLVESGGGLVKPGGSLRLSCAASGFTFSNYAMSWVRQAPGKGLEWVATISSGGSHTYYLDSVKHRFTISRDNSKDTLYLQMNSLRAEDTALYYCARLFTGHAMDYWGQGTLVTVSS VL: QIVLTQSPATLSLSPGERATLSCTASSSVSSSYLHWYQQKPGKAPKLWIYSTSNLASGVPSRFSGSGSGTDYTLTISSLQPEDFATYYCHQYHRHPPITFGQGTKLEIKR", "units_of_measure": "nM", "Kd": 17.7}
{"binder": "C1_IPN009VH2-SG4GK/IPN93L0030-SK1 (antibody, human IgG4 S228P, kappa, name in Kabat numbering, V domains shown, also called IPN009VH2/IPN93L0030) VH: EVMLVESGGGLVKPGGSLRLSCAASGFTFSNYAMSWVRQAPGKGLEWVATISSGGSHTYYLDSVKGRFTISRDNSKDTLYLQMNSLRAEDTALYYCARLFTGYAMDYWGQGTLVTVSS VL: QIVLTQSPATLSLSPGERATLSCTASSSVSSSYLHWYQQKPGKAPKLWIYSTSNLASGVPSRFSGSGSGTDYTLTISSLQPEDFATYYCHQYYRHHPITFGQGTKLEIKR", "units_of_measure": "nM", "Kd": 45.6}
